Biological target: human CCR10 (Homo sapiens, UniProt P46092)
Construct: expressed in transfected cells
Sequence (P46092 whole entry): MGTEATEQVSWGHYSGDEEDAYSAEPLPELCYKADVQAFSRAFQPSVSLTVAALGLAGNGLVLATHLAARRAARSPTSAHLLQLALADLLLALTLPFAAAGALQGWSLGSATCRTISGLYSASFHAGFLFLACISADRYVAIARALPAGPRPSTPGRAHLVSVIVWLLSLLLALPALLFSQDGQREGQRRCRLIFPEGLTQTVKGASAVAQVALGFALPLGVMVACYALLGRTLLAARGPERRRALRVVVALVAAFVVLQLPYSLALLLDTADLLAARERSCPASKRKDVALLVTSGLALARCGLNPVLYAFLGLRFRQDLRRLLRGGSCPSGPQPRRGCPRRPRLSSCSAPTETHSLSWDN
Assay: Chemotaxis assay (CCR10-transfected 300-19 cells, CCL27 gradient)
Format: cell-based
Conditions: CCR10-transfected 300-19 murine pre-B cells; 30 nM CCL27 gradient
Method: Lyophilized peptides were weighed on a Microbalance (Mettler MX5) and dissolved in aqueous 90% DMSO to a final concentration of 10 mM unless otherwise stated. Stock solutions were kept at +4° C., and protected from light. […] The chemotactic response of CCR10-transfected 300-19 murine pre-B cells to a gradient of CCL27 (CTACK) was measured using disposable Transwell® assay plates from Costar (5 μm pore size) according to the protocol of the manufacturer. […]
Square brackets hold non-standard residues; d marks the D form. Peptide text beside a SMILES is read from it. * marks the point of attachment. Pro(trans-4-cHex) = O=C(O)[C@@H]1C[C@@H](C2CCCCC2)CN1; Pro(4R-OPh) = O=C(O)[C@@H]1C[C@@H](Oc2ccccc2)CN1; Trp(5-OH) = N[C@@H](Cc1c[nH]c2ccc(O)cc12)C(=O)O; Phe(4-CN) = N#Cc1ccc(C[C@H](N)C(=O)O)cc1; 2Nal = N[C@@H](Cc1ccc2ccccc2c1)C(=O)O; Thz(5,5-Me2) = CC1(C)SCN[C@@H]1C(=O)O; Hyp = O=C(O)[C@@H]1C[C@@H](O)CN1; Benzyl(4-Br) = Brc1ccc(C*)cc1; Pip = O=C(O)[C@@H]1CCCCN1; dPip = O=C(O)[C@H]1CCCCN1; Ac5c = NC1(C(=O)O)CCCC1; Dab = NCC[C@H](N)C(=O)O; X10 = N#Cc1ccc(C*)cc1; Bn = c1ccc(C*)cc1
quantity.kind: IC50 (nM)

Some entries whose results are on file:
compound="N#Cc1ccc(CO[C@@H]2C[C@H]3C(=O)N[C@@H](Cc4c[nH]c5ccccc45)C(=O)NC4(CCCC4)C(=O)N[C@@H](Cc4c[nH]c5ccccc45)C(=O)N[C@@H](CCN)C(=O)N4CCC[C@@H]4C(=O)N3C2)cc1 [compound 53] (cyclo([Ac5c]W[Dab][dP][Hyp](X10)W))" assay_target="human CCR10 (Homo sapiens, UniProt P46092)" val=143
compound="NCC[C@@H]1NC(=O)[C@H](Cc2c[nH]c3ccccc23)NC(=O)C2(CCCC2)NC(=O)[C@H](Cc2ccc3ccccc3c2)NC(=O)[C@@H]2CCCCN2C(=O)[C@H]2CCCCN2C1=O [Ex. 10, cyclo(-2NaI-Cyp-Trp-Dab-^DPip-Pip-)] (cyclo([2Nal][Ac5c]W[Dab][dPip][Pip]))" assay_target="human CCR10 (Homo sapiens, UniProt P46092)" val=9.7
compound="CC1(C)SCN2C(=O)[C@H]3CCCN3C(=O)[C@H](CCCNC(=N)N)NC(=O)[C@H](Cc3c[nH]c4ccccc34)NC(=O)C3(CCCC3)NC(=O)[C@H](Cc3c[nH]c4ccc(O)cc34)NC(=O)[C@@H]21 [Ex. 29] (cyclo([Ac5c]WR[dP][Thz(5,5-Me2)][Trp(5-OH)]))" assay_target="human CCR10 (Homo sapiens, UniProt P46092)" val=109
compound="NCC[C@@H]1NC(=O)[C@H](Cc2c[nH]c3ccccc23)NC(=O)C2(CCCC2)NC(=O)[C@H](Cc2c[nH]c3ccccc23)NC(=O)[C@@H]2C[C@@H](Oc3ccccc3)CN2C(=O)[C@H]2CCCN2C1=O [compound 52, cyclo(-Trp-Cyp-Trp-Dab-^DPro-Hyp(Ph)-)] (cyclo([Ac5c]W[Dab][dP][Pro(4R-OPh)]W))" assay_target="human CCR10 (Homo sapiens, UniProt P46092)" val=37
compound="N#Cc1ccc(C[C@@H]2NC(=O)[C@@H]3C[C@@H](OCc4ccc(Br)cc4)CN3C(=O)[C@H]3CCCN3C(=O)[C@H](CO)NC(=O)[C@H](Cc3c[nH]c4ccccc34)NC(=O)C3(CCCC3)NC2=O)cc1 [compound 55] (cyclo([Ac5c]WS[dP][Hyp](Benzyl(4-Br))[Phe(4-CN)]))" assay_target="human CCR10 (Homo sapiens, UniProt P46092)" val=0.6

(A) NCC[C@@H]1NC(=O)[C@H](Cc2c[nH]c3ccccc23)NC(=O)C2(CCCC2)NC(=O)[C@H](Cc2c[nH]c3ccccc23)NC(=O)[C@@H]2C[C@@H](C3CCCCC3)CN2C(=O)[C@H]2CCCN2C1=O [compound 41] (cyclo([Ac5c]W[Dab][dP][Pro(trans-4-cHex)]W))
(B) N#Cc1ccc(C[C@@H]2NC(=O)[C@@H]3C[C@@H](OCc4ccccc4)CN3C(=O)[C@H]3CCCCN3C(=O)[C@H](CO)NC(=O)[C@H](Cc3c[nH]c4ccccc34)NC(=O)C3(CCCC3)NC2=O)cc1 [compound 50] (cyclo([Ac5c]WS[dPip][Hyp](Bn)[Phe(4-CN)]))
Qu. # min-compare on IC50 between A and B // output: label of the selected item
Ans. B
